Give measured pIC50 for each item. Keep answers brief.
tested-system: ATM (phospho-ATM Ser1981) in SN38 treated HT-29 cells (Homo sapiens (Human), UniProt Q13315)
Sequence (Q13315 whole entry, looked up): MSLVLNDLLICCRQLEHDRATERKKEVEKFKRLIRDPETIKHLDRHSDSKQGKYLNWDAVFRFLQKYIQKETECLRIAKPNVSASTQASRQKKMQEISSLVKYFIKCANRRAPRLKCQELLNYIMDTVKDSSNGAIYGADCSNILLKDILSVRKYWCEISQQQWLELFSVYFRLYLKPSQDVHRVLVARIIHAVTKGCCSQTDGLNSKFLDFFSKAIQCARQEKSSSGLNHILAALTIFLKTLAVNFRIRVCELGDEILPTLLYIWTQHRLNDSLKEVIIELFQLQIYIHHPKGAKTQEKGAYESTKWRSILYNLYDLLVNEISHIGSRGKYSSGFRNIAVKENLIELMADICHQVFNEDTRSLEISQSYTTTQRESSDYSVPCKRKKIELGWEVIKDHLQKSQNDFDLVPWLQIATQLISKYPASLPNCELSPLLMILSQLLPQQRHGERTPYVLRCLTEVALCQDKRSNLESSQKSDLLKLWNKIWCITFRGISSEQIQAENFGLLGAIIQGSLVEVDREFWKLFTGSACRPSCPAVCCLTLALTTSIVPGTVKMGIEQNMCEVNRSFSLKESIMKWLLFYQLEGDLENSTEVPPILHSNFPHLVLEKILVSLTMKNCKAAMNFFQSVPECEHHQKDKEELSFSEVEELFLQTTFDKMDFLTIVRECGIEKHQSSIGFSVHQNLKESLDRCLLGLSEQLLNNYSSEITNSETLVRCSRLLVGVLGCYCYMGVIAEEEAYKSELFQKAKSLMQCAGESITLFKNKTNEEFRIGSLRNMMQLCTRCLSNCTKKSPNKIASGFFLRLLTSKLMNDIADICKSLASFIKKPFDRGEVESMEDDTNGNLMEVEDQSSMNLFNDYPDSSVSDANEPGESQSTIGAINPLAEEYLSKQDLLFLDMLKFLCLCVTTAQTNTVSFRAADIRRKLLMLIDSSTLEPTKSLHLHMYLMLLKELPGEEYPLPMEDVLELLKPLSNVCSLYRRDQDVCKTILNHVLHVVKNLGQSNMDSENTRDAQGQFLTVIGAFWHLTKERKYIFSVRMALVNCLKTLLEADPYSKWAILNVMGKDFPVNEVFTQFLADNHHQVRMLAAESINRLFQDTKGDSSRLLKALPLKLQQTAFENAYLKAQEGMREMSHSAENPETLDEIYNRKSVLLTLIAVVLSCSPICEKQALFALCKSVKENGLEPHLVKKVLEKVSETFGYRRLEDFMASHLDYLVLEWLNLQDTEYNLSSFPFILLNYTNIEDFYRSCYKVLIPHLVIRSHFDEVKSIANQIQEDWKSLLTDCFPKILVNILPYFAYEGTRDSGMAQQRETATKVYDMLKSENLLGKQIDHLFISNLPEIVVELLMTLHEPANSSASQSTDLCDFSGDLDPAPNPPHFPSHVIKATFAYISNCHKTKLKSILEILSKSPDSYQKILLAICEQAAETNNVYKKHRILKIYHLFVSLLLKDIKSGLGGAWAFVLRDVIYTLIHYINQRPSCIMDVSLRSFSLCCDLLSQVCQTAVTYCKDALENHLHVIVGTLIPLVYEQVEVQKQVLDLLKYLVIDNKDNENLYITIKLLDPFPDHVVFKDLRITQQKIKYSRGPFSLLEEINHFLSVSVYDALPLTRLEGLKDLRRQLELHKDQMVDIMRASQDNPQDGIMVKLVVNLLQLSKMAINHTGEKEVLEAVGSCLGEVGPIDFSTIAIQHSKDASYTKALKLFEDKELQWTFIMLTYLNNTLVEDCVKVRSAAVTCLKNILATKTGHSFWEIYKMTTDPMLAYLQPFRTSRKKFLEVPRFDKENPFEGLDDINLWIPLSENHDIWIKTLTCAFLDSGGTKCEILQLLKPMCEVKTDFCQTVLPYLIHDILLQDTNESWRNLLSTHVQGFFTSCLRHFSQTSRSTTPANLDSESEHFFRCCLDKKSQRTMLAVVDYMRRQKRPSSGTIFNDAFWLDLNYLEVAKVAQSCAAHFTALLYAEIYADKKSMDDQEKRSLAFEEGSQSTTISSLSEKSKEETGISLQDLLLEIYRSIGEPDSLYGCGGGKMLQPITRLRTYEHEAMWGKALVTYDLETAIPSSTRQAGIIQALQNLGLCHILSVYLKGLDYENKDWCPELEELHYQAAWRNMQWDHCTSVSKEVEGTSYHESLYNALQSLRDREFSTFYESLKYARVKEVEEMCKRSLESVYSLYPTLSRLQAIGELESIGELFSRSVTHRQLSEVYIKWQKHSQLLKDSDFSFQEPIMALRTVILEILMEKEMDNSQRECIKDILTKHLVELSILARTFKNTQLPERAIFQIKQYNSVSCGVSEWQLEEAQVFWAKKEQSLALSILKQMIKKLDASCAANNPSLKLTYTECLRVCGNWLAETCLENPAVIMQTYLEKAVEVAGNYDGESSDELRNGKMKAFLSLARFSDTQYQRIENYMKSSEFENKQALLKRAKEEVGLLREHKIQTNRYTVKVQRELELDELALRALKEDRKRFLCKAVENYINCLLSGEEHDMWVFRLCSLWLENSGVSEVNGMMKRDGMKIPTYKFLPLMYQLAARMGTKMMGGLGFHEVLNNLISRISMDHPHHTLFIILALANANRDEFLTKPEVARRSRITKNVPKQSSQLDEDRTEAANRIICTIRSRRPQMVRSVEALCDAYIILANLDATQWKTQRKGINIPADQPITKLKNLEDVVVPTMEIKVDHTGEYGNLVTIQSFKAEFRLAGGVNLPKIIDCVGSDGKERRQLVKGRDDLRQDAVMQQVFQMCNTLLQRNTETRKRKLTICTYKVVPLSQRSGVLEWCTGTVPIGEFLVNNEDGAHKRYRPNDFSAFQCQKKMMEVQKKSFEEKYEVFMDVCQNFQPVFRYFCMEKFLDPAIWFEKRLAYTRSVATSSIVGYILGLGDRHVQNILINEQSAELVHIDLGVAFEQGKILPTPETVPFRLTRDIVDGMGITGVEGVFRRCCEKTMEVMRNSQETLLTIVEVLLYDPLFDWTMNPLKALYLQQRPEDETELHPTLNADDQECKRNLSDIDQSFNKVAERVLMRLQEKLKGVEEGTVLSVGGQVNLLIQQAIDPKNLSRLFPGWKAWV
run-description: cell-based
Numbers only, as −log10 of the molar value.

[
  {
    "compound": "CC(C)n1c(=O)n(C)c2nnc3ccc(-c4ccc([C@@H](C)OCCN5CCCC5)nc4)cc3c21 [Example 62]",
    "pIC50": 7.68
  }
]

Turning now to a further record.
Problem: What value of measured pIC50 is listed for CO[C@@H]1CCN(CCO[C@H](C)c2ccc(-c3ccc4nnc5c(c4c3)n(C3CCOCC3)c(=O)n5C)cn2)C1 [Example 112] ?
Solution: 7.74

// provenance: patent US20240207263A1
